The entries below come with measured Inhibitory Ratio of NF-κ B Activation(%) Drug Concentration 10 μg/mL values attached.
# System: NF-κ B
# measurement.notes: Inhibitory activity of NF-κ B activation, luciferase reporter assay in HepG2 under TNF-α stimulation
# Format: cell-based, human
# experimental.conditions: 10 μg/mL; HepG2, TNF-α (40 ng/ml), 4 hours
Give your result in % as a bare value.

Consider the worked cases shown below.
1. O=C(Nc1cc(F)cc(C(F)(F)F)c1)c1cc(Cl)ccc1O [Compound No. 85]; 98.9
2. O=C(Nc1cc(N2CCOCC2)ccc1[N+](=O)[O-])c1cc(Cl)ccc1O [Compound No. 174]; 89.6
3. O=C(Nc1cc(C(F)(F)F)ccc1N1CCOCC1)c1cc(Cl)ccc1O [Compound No. 106]; 92.1

Which Inhibitory Ratio of NF-κ B Activation(%) Drug Concentration 10 μg/mL is reported with NF-κ B for this entry: CC(=O)Oc1ccc(Cl)cc1C(=O)Nc1cc(C(F)(F)F)cc(C(F)(F)F)c1 [compound 5] ?
99.2

Which Inhibitory Ratio of NF-κ B Activation(%) Drug Concentration 10 μg/mL is reported with NF-κ B for this entry: Cc1ccc(C(=O)C(C)(C)C)cc1NC(=O)c1cc(Cl)ccc1O [compound 166] ?
96.4

Which Inhibitory Ratio of NF-κ B Activation(%) Drug Concentration 10 μg/mL is reported with NF-κ B for this entry: Cc1ccc(S(=O)(=O)c2ccc(Cl)c(NC(=O)c3cc(Cl)ccc3O)c2)cc1 [Compound No. 169] ?
95.9

Which Inhibitory Ratio of NF-κ B Activation(%) Drug Concentration 10 μg/mL is reported with NF-κ B for this entry: Cc1nc(NC(=O)c2cc(Br)ccc2O)sc1C [Compound No. 191] ?
67.2

Which Inhibitory Ratio of NF-κ B Activation(%) Drug Concentration 10 μg/mL is reported with NF-κ B for this entry: Cc1cnc(NC(=O)c2cc(Br)ccc2O)s1 [Compound No. 190] ?
69.7

Which Inhibitory Ratio of NF-κ B Activation(%) Drug Concentration 10 μg/mL is reported with NF-κ B for this entry: O=C(Nc1cc(C(F)(F)F)cc(C(F)(F)F)c1)c1ccc(O)c(C(=O)Nc2cc(C(F)(F)F)cc(C(F)(F)F)c2)c1 [Compound No. 37] ?
94.5

Which Inhibitory Ratio of NF-κ B Activation(%) Drug Concentration 10 μg/mL is reported with NF-κ B for this entry: CNC(=O)c1sc(NC(=O)c2cc(Br)ccc2O)nc1-c1ccccc1 [Compound No. 220] ?
58.6

Which Inhibitory Ratio of NF-κ B Activation(%) Drug Concentration 10 μg/mL is reported with NF-κ B for this entry: Cc1ccc(O)c(C(=O)Nc2cc(C(F)(F)F)ccc2Cl)c1 [Compound No. 100] ?
95.1

###

# Tested on: IL-8
# measurement.notes: Inhibition of IL-8 production by TNFα stimulation in synovial fibroblasts derived from a rheumatoid patient (ELISA)
# Format: cell-based, human
# experimental.conditions: Homo sapiens, Fibroblast, 72 h; synovial fibroblasts, 10 ng/ml TNFα, 3 days; read-out: Inhibition against Mediator Release IC50(nM) IL-8
The entries below come with measured IC50 values attached.
Give your result in nM as a bare value.

1. CC(C)(C)c1nc(NC(=O)c2cc(Br)ccc2O)sc1N1CCN(c2ccccc2)CC1; 832

What value of measured IC50 is listed for O=C(Nc1cc(C(F)(F)F)cc(C(F)(F)F)c1)c1cc(Cl)ccc1O ?
450

What value of measured IC50 is listed for CC(C)(C)c1ccc(O)c(C(=O)Nc2cc(C(F)(F)F)cc(C(F)(F)F)c2)c1 ?
377

What value of measured IC50 is listed for CC(C)(C)C(=O)c1sc(NC(=O)c2cc(Cl)ccc2O)nc1C(C)(C)C ?
458

What value of measured IC50 is listed for O=C(Nc1cc(C(F)(F)F)cc(C(F)(F)F)c1)c1cc(C#Cc2ccccc2)ccc1O ?
869

Reference for the values: patent US20060089395A1
